Source of measurements: patent US12098116B2

assay: Solvent solubility study of ralinepag; format: physicochemical; settings: organic solvent or mixture, thermodynamic from solid; solvent tert-butylmethyl ether; heated to 40° C.; read-out: Estimated Solubility
Measured property: solubility (mg/mL)
Provide the reading as a plain figure in mg/mL.

Quick note, solubility for O=C(O)COC[C@H]1CC[C@H](COC(=O)N(c2ccccc2)c2ccc(Cl)cc2)CC1 [ralinepag] landed at 25

###

Assay: Solvent solubility study of ralinepag
Format: physicochemical
Settings: organic solvent or mixture, thermodynamic from solid; solvent N,N-dimethylacetamide; read-out: Estimated Solubility
Procedure: To prepare amorphous material for solubility testing, 330 mg of ralinepag was dissolved in 33 mL tert-butanol (with gentle heating applied via a heatgun) before being split evenly into 33 vials (˜10 mg of ralinepag per sample). […] One vial of solid was analyzed by XRPD to confirm that ralinepag had been rendered amorphous. However, as in Example 2g, a poorly crystalline Pattern 2 was observed. […] Recovered solids were analyzed by XRPD.
Measured property: solubility (mg/mL)
Quick note: give the figure in mg/mL, leave out the unit.

Measured solubility of O=C(O)COC[C@H]1CC[C@H](COC(=O)N(c2ccccc2)c2ccc(Cl)cc2)CC1 : 200

###

test: Solvent solubility study of ralinepag; format: physicochemical; details: organic solvent or mixture, thermodynamic from solid; solvent toluene; heated to 40° C.; read-out: Estimated Solubility
Measured property: solubility (mg/mL)
Give the value, in units of mg/mL, as a plain number.

For this compound ( O=C(O)COC[C@H]1CC[C@H](COC(=O)N(c2ccccc2)c2ccc(Cl)cc2)CC1 [ralinepag] ), measured solubility is 14.3

###

experiment: Solvent solubility study of ralinepag; type: physicochemical; conditions: organic solvent or mixture, thermodynamic from solid; solvent ethanol; heated to 40° C.; read-out: Estimated Solubility
Measured property: solubility (mg/mL)
Return type: number; implicit unit mg/mL.

Lab book: solubility of O=C(O)COC[C@H]1CC[C@H](COC(=O)N(c2ccccc2)c2ccc(Cl)cc2)CC1 [ralinepag] noted as 100

###

Assay: Solvent solubility study of ralinepag
Format: physicochemical
Conditions: organic solvent or mixture, thermodynamic from solid; solvent 2-ethoxyethanol; heated to 40° C.; read-out: Estimated Solubility
Protocol: To prepare amorphous material for solubility testing, 330 mg of ralinepag was dissolved in 33 mL tert-butanol (with gentle heating applied via a heatgun) before being split evenly into 33 vials (˜10 mg of ralinepag per sample). […] One vial of solid was analyzed by XRPD to confirm that ralinepag had been rendered amorphous. However, as in Example 2g, a poorly crystalline Pattern 2 was observed. […] Recovered solids were analyzed by XRPD.
Measured property: solubility (mg/mL)
Reply with just the number (in mg/mL).

Noted for O=C(O)COC[C@H]1CC[C@H](COC(=O)N(c2ccccc2)c2ccc(Cl)cc2)CC1 : its solubility reads 200

###

test: Solvent solubility study of ralinepag; assay type: physicochemical; settings: thermodynamic from solid; solvent water; read-out: Estimated Solubility
Measured property: solubility

// recorded solubility for O=C(O)COC[C@H]1CC[C@H](COC(=O)N(c2ccccc2)c2ccc(Cl)cc2)CC1 : < 10000 µg/mL

###

experiment: Solvent solubility study of ralinepag; format: physicochemical; settings: organic solvent or mixture, thermodynamic from solid; solvent 2-propanol; heated to 40° C.; read-out: Estimated Solubility
Measured property: solubility

Given item O=C(O)COC[C@H]1CC[C@H](COC(=O)N(c2ccccc2)c2ccc(Cl)cc2)CC1 , the value recorded as its solubility is 50 mg/mL
